- target_under_test: mouse ACVR2A (mouse, UniProt P27038 20-135, limits assumed); also: test concentration or dose not given here
- Sequence (P27038 20-135 limits assumed): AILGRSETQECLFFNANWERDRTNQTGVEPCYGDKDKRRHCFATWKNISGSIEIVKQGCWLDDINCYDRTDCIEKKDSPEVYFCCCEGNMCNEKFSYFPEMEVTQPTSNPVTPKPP
- test_method_notes: ELISA
value_kind: optical density (OD)
Field: numeric (OD). Do not append units.

Solved cases (6 shown):
INSERT INTO assay_data (binder, value_kind, output_unit, reported_result) VALUES
  ('376_B06 (antibody, V domains shown, VH/VL only) VH: EVQLLESGGGLVQPGGSLRLSCAASGFTFSSYSMNWVRQAPGKGLEWVAGINYNSGYKGYADSVKGRFTISRDNSKNTLYLQMNSLRAEDTAVYYCARSATWHDTHLDYWGQGTLVTVSS VL: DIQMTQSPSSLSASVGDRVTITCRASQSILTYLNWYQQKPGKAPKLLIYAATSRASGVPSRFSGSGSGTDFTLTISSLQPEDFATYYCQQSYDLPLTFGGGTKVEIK', 'optical density', 'OD', 3.77),
  ('372_F07 (antibody, V domains shown, VH/VL only) VH: EVQLLESGGGLVQPGGSLRLSCAASGFTFDDYSMNWVRQAPGKGLEWVAGINYNSGYKGYADSVKGRFTISRDNSKNTLYLQMNSLRAEDTAVYYCARSATWHDTHLDYWGQGTLVTVSS VL: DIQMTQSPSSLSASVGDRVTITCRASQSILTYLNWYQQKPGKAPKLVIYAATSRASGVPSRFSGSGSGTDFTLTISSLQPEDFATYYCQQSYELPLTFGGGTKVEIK', 'optical density', 'OD', 3.24),
  ('374_E11 (antibody, V domains shown, VH/VL only) VH: EVQLLESGGGLVQPGGSLRLSCAASGFTFSSYGMNWVRQAPGKGLEWVSNINYNGGYTSYADSVKGRFTISRDNSKNTLYLQMNSLRAEDTAVYYCARSANWHDTALDYWGQGTLVTVSS VL: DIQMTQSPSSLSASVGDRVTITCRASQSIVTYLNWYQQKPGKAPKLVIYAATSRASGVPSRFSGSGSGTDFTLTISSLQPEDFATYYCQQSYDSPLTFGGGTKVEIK', 'optical density', 'OD', 3.59),
  ('376_H09 (antibody, V domains shown, VH/VL only) VH: EVQLLESGGGLVQPGGSLRLSCAASGFTFSDYSMNWVRQAPGKGLEWVANINYNGGYTGYADSVKGRFTISRDNSKNTLYLQMNSLRAEDTAVYYCARSANWHDTALDYWGQGTLVTVSS VL: DIQMTQSPSSLSASVGDRVTITCRASQSIITYLNWYQQKPGKAPKLVIYYVSNLPSGVPSRFSGSGSGTDFTLTISSLQPEDFATYYCQQSYDSPLTFGGGTKVEIK', 'optical density', 'OD', 3.3),
  ('371_D03 (antibody, V domains shown, VH/VL only) VH: EVQLLESGGGLVQPGGSLRLSCAASGFTFDSYGMNWVRQAPGKGLEWVANINYNGGYTSYADSVKGRFTISRDNSKNTLYLQMNSLRAEDTAVYYCARSATWHDTALDYWGQGTLVTVSS VL: DIQMTQSPSSLSASVGDRVTITCRASQSILTYVNWYQQKPGKAPKLVIYAATSLASGVPSRFSGSGSGTDFTLTISSLQPEDFATYYCQQSYNTPLTFGGGTKVEIK', 'optical density', 'OD', 1.83),
  ('365_F04 (antibody, V domains shown, VH/VL only) VH: EVQLLESGGGLVQPGGSLRLSCAASGFTFSSYGMNWVRQAPGKGLEWVAGINYNGGYTGYADSVKGRFTISRDNSKNTLYLQMNSLRAEDTAVYYCARSATWHDTHLDYWGQGTLVTVSS VL: DIQMTQSPSSLSASVGDRVTITCRASQSIVTYVNWYQQKPGKAPKLLIYAATSRASGVPSRFSGSGSGTDFTLTISSLQPEDFATYYCQQSYDTPLTFGGGTKVEIK', 'optical density', 'OD', 2.51);

Input line: I would be grateful if you could share the reported optical density for 371_C09 (antibody, V domains shown, VH/VL only) VH: EVQLLESGGGLVQPGGSLRLSCAASGFTFDSYSMNWVRQAPGKGLEWVSGINYNGGYKSYADSVKGRFTISRDNSKNTLYLQMNSLRAEDTAVYYCARSATWHDTHLDYWGQGTLVTVSS VL: DIQMTQSPSSLSASVGDRVTITCRASQSILTYVNWYQQKPGKAPKLLIYAASSLQSGVPSRFSGSGSGTDFTLTISSLQPEDFATYYCQQSYDNPLTFGGGTKVEIK .
Output line: 3.29

Input line: Could you do the same for 369_B12 (antibody, V domains shown, VH/VL only) VH: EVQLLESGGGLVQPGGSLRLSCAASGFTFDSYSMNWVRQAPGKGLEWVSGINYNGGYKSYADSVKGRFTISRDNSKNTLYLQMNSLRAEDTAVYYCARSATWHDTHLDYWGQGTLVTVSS VL: DIQMTQSPSSLSASVGDRVTITCRASQSILTYVNWYQQKPGKAPKLLIYATTSLASGVPSRFSGSGSGTDFTLTISSLQPEDFATYYCQQSYDSPLTFGGGTKVEIK , please?
Output line: 2.76

Input line: Could you do the same for 374_D02 (antibody, V domains shown, VH/VL only) VH: EVQLLESGGGLVQPGGSLRLSCAASGFTFDSYSMNWVRQAPGKGLEWVAGINYNSGYTSYADSVKGRFTISRDNSKNTLYLQMNSLRAEDTAVYYCARSATWHDTHLDYWGQGTLVTVSS VL: DIQMTQSPSSLSASVGDRVTITCRASQSISTYVNWYQQKPGKAPKLLIYAVTSLASGVPSRFSGSGSGTDFTLTISSLQPEDFATYYCQQSYDSPLTFGGGTKVEIK , please?
Output line: 3.2

Input line: Could you do the same for 374_E09 (antibody, V domains shown, VH/VL only) VH: EVQLLESGGGLVQPGGSLRLSCAASGFTFSDYSMNWVRQAPGKGLEWVSGINYNGGYKGYADSVKGRFTISRDNSKNTLYLQMNSLRAEDTAVYYCARSATWHDTHLDYWGQGTLVTVSS VL: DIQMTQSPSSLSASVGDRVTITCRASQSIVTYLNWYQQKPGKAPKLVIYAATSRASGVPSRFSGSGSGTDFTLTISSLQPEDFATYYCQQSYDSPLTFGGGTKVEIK , please?
Output line: 3.58
